TGI reference
- Tested on: CCRF-CEM leukemia
- method_summary: NCI tumour cell line growth inhibition, 48 h

Known TGI results, listed for orientation:
INSERT INTO results (compound, measured_result) VALUES
  ('CCC1(N=[N+]=[N-])C(=O)c2ccccc2N(C)C1=O (stereo not given)', '> 100 µM'),
  ('CN(C(=O)C12C3C4C5C3C1(C(=O)C13C6C7C8C6C1C8C73)C5C42)C(C)(C)C (stereo not given)', '> 37.9 µM'),
  ('NC(=S)/N=C(/c1nc2ccc(Cl)cc2[nH]c1=O)C(O)c1ccccc1Cl (stereo not given)', '> 100 µM'),
  ('CCOC(=O)Nc1nc2ccc(OC)cc2s1', '> 100 µM'),
  ('Cn1c2ccccc2c2c3c(c4c5ccccc5n(C)c4c21)C(=O)NC3=O', '> 100 µM'),
  ('CCOC(=O)C(=O)Nc1ccccc1C', '> 100 µM'),
  ('Cc1ncc(C(=O)Nc2ccc(CN3CCN(C)CC3)c(C(F)(F)F)c2)cc1C#Cc1cnc2cccnn12', '20.7 µM'),
  ('COc1cc2ncn(-c3cc(OCc4ccccc4C(F)(F)F)c(C(=O)N(C)C)s3)c2cc1OC', '> 25 µM'),
  ('CC[C@H](Nc1ncnc2nc[nH]c12)c1nc2cccc(F)c2c(=O)n1-c1ccccc1', '> 100 µM');

// next entry
Sample COc1cccc(/C(C#N)=C/c2nc3c(N4CCOCC4)nc(Cl)nc3n2C)c1 — what was its TGI? 0.934 µM
